# Measurement target: human FGFR1c + KLB receptor complex on HEK293 iLite FGF21 reporter cells (human, UniProt P11362 22-822; Q86Z14 1-1044)
# Sequence (P11362 22-822, chain 1 of 2): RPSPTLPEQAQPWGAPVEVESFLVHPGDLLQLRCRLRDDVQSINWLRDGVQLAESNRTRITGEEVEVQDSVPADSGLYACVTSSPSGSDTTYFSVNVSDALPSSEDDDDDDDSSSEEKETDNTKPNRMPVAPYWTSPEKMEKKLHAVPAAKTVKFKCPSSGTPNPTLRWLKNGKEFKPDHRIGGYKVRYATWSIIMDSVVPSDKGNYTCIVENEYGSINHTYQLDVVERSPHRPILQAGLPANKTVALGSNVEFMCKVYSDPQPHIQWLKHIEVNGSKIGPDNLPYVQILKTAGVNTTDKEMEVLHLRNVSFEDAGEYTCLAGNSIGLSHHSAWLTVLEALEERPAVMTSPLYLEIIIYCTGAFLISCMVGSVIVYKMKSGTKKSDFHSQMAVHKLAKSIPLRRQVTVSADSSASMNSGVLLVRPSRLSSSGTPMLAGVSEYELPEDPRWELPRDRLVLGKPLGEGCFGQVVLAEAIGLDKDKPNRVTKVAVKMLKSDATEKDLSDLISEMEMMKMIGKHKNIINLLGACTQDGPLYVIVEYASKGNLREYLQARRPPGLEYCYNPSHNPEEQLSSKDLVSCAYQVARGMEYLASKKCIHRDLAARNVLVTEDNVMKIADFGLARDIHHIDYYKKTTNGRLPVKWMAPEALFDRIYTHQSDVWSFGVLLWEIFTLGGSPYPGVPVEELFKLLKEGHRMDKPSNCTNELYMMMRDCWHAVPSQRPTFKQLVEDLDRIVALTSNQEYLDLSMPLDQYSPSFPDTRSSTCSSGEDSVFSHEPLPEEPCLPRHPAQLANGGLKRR
# Sequence (Q86Z14 whole entry, chain 2 of 2): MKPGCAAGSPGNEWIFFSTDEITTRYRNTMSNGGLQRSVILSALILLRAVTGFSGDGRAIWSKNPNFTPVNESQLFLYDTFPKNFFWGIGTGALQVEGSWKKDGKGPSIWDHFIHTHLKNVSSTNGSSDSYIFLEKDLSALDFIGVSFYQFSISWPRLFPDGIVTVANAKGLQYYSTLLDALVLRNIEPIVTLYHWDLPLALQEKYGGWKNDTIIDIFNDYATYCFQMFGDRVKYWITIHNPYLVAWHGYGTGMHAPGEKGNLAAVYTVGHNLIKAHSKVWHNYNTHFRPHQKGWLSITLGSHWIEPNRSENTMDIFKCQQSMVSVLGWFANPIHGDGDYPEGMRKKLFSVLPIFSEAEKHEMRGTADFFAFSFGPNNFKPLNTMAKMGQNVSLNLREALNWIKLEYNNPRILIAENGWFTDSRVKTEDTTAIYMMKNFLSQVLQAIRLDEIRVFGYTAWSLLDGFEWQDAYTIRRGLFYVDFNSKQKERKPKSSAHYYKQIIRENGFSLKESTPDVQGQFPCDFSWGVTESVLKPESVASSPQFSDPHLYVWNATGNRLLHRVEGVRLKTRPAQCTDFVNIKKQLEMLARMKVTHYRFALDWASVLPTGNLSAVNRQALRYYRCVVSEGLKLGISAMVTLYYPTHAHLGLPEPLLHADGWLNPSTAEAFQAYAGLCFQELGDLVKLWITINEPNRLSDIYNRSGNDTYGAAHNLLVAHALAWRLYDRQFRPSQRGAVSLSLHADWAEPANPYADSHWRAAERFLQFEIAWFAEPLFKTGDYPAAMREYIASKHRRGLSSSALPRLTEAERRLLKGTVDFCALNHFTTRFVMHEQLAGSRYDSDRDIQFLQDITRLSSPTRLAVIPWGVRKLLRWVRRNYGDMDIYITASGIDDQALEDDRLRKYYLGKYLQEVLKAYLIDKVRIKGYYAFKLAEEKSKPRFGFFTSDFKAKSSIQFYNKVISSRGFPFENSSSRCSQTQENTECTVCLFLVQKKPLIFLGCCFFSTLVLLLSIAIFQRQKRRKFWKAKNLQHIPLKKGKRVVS
# Method description: cell-based or functional assay
Exercise: for every item that follows, state its recorded Emax.
Answers are plain numbers, in %.

[
  {
    "Binder": "Ab0347 (antibody, IgG4, V domains shown) VH: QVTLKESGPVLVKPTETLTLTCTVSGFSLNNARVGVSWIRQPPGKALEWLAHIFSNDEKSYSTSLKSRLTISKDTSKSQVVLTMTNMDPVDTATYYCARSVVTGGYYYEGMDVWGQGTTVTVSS VL: SYVLTQPPSVSVAPGQTARITCGGSNIGSESVHWYQQKPGQAPVLVVYASSDRPSGIPERFSGSNSGNTATLTISRVEAGDEADYYCQVWAGSSDHVVFGGGTKLTVLG",
    "Endpoint unit": "%",
    "Emax": 695
  }
]

Batch request: Emax per item, same order as input.
1. Ab0365 (antibody, IgG4, V domains shown) VH: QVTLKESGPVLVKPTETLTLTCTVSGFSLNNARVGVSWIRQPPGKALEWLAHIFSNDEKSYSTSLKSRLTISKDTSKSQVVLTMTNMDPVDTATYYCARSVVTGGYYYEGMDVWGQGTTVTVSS VL: SYVLTQPPSVSVAPGQTARITCGGANIGSESVHWYQQKPGQAPVLVVYTESDRPSGIPERFSGSNSGNTATLTISRVEAGDEADYYCQVWAGSSDHVVFGGGTKLTVLG
2. Ab0358 (antibody, IgG4, V domains shown, IgG4 PE) VH: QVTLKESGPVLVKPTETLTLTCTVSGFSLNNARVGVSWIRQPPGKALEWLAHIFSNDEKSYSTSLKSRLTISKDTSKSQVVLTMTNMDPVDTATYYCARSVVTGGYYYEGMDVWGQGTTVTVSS VL: SYVLTQPPSVSVAPGQTARITCGGSNIGSESVHWYQQKPGQAPVLVVYEASDRPSGIPERFSGSNSGNTATLTISRVEAGDEADYYCQVWHGSSDHVVFGGGTKLTVLG
3. Ab0301 (antibody, IgG4, V domains shown) VH: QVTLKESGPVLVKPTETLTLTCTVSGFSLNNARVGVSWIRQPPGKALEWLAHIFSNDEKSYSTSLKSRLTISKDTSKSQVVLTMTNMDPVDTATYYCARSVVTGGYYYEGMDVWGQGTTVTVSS VL: SYVLTQPPSVSVAPGQTARITCGGSNIGSESVHWYQQKPGQAPVLVVYYDSDRPSGIPERFSGSNSGNTATLTISRVEAGDEADYYCQVWTGNSDHVVFGGGTKLTVLG

1: 583; 2: 858; 3: 697
